Subject Of Test: MMP-14CD (membrane-type MMP-1) (Homo sapiens)
Construct: Experiments were carried out with the full-length and catalytic domains of the proteinases
Assay Name: MMP inhibition, thiopeptolide substrate assay
Type: biochemical
Condition Parameters: thiopeptolide substrate Ac-Pro-Leu-Gly-thioester-Leu-Leu-Gly-OEt; catalytic domain
Measurement Label: IC50 (µM)

[P] O=C(O)CCC(=NO)c1ccc2c3c(oc2c1)CCCC3 [Example 1]
[Q] O=C(CC(CCCc1ccccc1)C(=O)O)c1ccc2c3c(oc2c1)CCCC3 (stereo not drawn) [Example 2]
[R] CN1C(=O)N(CC(CC(=O)c2ccc3c4c(oc3c2)CCCC4)C(=O)O)C(=O)C1(C)C (stereo not drawn) [Example 3]
IN: Please rank these compounds by IC50 in descending order. Give me the labels in the order the question wants.
OUT: R, Q, P
(R: 2 µM, Q: 0.82 µM, P: 0.24 µM)
